Stimulation index at 800 nM OA antibody listing for selected binders.
Tested system: human plasma-derived FIXa (Haematologic Technologies Inc) (human, UniProt P00740 47-191; P00740 227-461)
Sequence (P00740 47-191, chain 1 of 2): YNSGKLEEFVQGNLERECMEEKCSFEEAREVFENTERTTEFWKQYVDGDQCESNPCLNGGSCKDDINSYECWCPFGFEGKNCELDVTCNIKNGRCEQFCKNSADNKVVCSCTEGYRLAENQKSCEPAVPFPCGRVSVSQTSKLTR
Sequence (P00740 227-461, chain 2 of 2): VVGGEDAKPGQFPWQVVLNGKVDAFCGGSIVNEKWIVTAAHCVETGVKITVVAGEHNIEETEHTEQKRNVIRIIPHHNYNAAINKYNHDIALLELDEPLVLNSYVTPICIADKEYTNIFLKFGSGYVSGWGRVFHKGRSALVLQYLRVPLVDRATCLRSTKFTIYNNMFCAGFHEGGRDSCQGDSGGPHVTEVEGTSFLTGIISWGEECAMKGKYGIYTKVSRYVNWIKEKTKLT
Test description: cell-based or functional assay
Report as a plain number; the unit fold is understood.

Examples with their reported Stimulation index at 800 nM OA antibody follow.
[[record]]
binder = "mAb5-2035 (monovalent one-armed version of mAb1-9285) (antibody, V domains shown) VH: EVQLVESGGGLVQPGRSLKLSCAASGFTFDDYAMHWVRQVPGKGLEWVSGISWRGDIIGYVKSVKGRFTISRDNAKNSLYLQLNSLRIEDTALYYCVKSYGSGSFYNAFDSWGQGTLVTVSS VL: DIQMTQSPSTLSASAGDRVTITCRASKSISSWLAWYQQKPGKAPKFLIYKASRLERGVPSRFSGSGSGTEFSLTISSLQPDDFATYYCLEYSSYIRTFGQGTKVEIK"
metric_name = "Stimulation index at 800 nM OA antibody"
recorded_result = 732

[[record]]
binder = "mAb4-5344 (monovalent one-armed version of mAb1-6592) (antibody, V domains shown) VH: EVQLVQSGAEVKKPGESLRISCKGSGYSFRPYWIGWVRQMPGKGLEWMGMIDPSDSYTDYGPSFRGHVTISADKSISTAYLQWSSLKASDTAMYYCARVRIRAGAFDIWGQGTMVTVSS VL: DIVMTQSPLSLPVTPGEPASISCRSSQSLLHSTWYNYLNWYLQKPGQSPQLLIYLGSRRASGVPDRFSGSGSGTDFTLKISRVEAEDVGVYYCMQVLHIPYTFGQGTKLEIK"
metric_name = "Stimulation index at 800 nM OA antibody"
recorded_result = 916


Query binder follows.
Asked: Name the reported Stimulation index at 800 nM OA antibody value associated with the binder mAb4-5357 (monovalent one-armed version of mAb1-6590) (antibody, V domains shown) VH: EVQLVQSGAEVKKPGESLRISCKGSGYSFRPYWIGWVRQMPGKGLEWMGMIDPSDSYTDYGPSFEGHVTISADKSISTAYLQWSSLKASDTAMYYCARVRIRAGAFDIWGQGTMVTVSS VL: DIVMTQSPLSLPVTPGEPASISCRSSQSLLHSTWYNYLNWYLQKPGQSPQLLIYLGSRRASGVPDRFSGSGSGTDFTLKISRVEAEDVGVYYCMQVLHIPYTFGQGTKLEIK
Given back: 1290
